- assayProtocol: H69AR cell proliferation blockers – human, duplicate replicates, primary screen (AID 580);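 further: 100% = mean luminescence of untreated wells and 0% = no signal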
- conditionContext: H69AR lung tumor cells viability, ATP luminescence, 72 h; at 10 µM; stronger effect = lower value
readoutKind: viability (%)

{"molecule": "Cc1ccc(S(=O)(=O)NCCc2ccncc2)cc1", "measured": 110}
{"molecule": "CCOC(=O)Cc1nnc(NC(=O)c2ncn[nH]2)s1", "measured": 98.8}
{"molecule": "Cn1nc(-c2ccc(C(=O)N3CCN(c4ccccc4)CC3)cc2)c2ccccc2c1=O", "measured": 92.4}
{"molecule": "CCOC(=O)N1CCN(C(=O)Nc2ccc(Cl)cc2)CC1", "measured": 98.3}
{"molecule": "COCC(C)NC(=O)CCS(=O)(=O)c1nc(-c2ccc(OC)cc2)cc(C(F)(F)F)n1 (stereo unspecified)", "measured": 23.7}
{"molecule": "Cc1ccc(-c2ccc(/C=N/n3cnnc3)o2)cc1Cl", "measured": 101}
